B1: glmS ribozyme (parent)
chain: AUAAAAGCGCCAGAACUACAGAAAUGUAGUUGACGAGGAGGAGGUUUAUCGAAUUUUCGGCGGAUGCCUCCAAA

Variants of: B1
Assay: self-cleavage kobs at 160 uM GlcN6P; higher = faster cleavage; RNA array
Conditions: with glucosamine-6-phosphate
Variants at the floor of the assay were thinned out.
Recorded self-cleavage kobs at 160 uM GlcN6P by entry
property measured: self-cleavage kobs at 160 uM GlcN6P

mutation	reported
A14U G40C	5.2e-05 s⁻¹
G26U U54A	0.000887 s⁻¹
G9A A52U	< 1e-05 s⁻¹
G35A U49A C67G C68G	0.000246 s⁻¹
G7C U45A	< 1e-05 s⁻¹
A6U G40A A52C	< 1e-05 s⁻¹
A39U U54C G62C	< 1e-05 s⁻¹
G9U G41C	< 1e-05 s⁻¹
U31G A33U U47G	< 1e-05 s⁻¹
A42U U69A	0.00511 s⁻¹
A36C C50G G51A	< 1e-05 s⁻¹
C11A U57G	< 1e-05 s⁻¹
G44U C67U	0.000837 s⁻¹
G13U G37C U45C C68U	< 1e-05 s⁻¹
A36U U65C	< 1e-05 s⁻¹
U45C U54C	0.000142 s⁻¹
C10G C11G	< 1e-05 s⁻¹
A12U A15G G41A	0.000272 s⁻¹
A33C G38A	< 1e-05 s⁻¹
G35A G41C	< 1e-05 s⁻¹
A42G G63C	< 1e-05 s⁻¹
U65A C70G	5.95e-05 s⁻¹
A36G G37C	< 1e-05 s⁻¹
G37C A39G G44A	< 1e-05 s⁻¹
G37A G38U	< 1e-05 s⁻¹
A33C A36G	< 1e-05 s⁻¹
C11A A33U G66A	< 1e-05 s⁻¹
G29U A64U	< 1e-05 s⁻¹
A15U G60U	< 1e-05 s⁻¹
U55C C68A	< 1e-05 s⁻¹
C50G G63C	3.67e-05 s⁻¹
G38A C61U C70G	< 1e-05 s⁻¹
U46C C71U	0.000375 s⁻¹
A15C C70G C71A	4.75e-05 s⁻¹
A12C A39G	0.00113 s⁻¹
G43A U56A U57A C61U	< 1e-05 s⁻¹
C8U G32U C50G	0.000945 s⁻¹
G9U G51U	< 1e-05 s⁻¹
G35A G62C	< 1e-05 s⁻¹
G7U U57A	< 1e-05 s⁻¹
A12C U69C	0.000486 s⁻¹
U31A C50A G51U A53G	< 1e-05 s⁻¹
U47G C70U	0.000641 s⁻¹
A36C C70A	0.000113 s⁻¹
U31G C50G	0.000172 s⁻¹
G13U U54G	9.27e-05 s⁻¹

Sourced from the supplement of paper PMC7125110
